target: human CB1 receptor (Homo sapiens); assay: GTPγS binding on membranes of CHO cells expressing the human CB1 receptor; settings: CHO cell membranes, [35S] GTPγS
Sequence (P21554 whole entry): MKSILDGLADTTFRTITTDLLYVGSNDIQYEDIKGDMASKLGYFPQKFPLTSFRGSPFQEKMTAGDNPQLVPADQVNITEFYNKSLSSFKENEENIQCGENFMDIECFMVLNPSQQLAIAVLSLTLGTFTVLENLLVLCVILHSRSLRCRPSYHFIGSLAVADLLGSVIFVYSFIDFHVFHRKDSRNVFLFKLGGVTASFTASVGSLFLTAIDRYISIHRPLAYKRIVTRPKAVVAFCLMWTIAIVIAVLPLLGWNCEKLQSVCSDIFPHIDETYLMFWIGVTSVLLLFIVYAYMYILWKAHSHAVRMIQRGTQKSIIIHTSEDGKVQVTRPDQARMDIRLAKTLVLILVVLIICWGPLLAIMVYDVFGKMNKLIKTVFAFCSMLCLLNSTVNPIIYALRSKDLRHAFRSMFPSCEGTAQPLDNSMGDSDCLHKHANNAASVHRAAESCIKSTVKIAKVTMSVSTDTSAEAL
value_kind: EC50 (µM)
Return type: number; implicit unit µM.

Query: Give the value of EC50 reported for the following: `CC(C)(C)[C@H](NC(=O)n1c(=O)n(CC2CCCCC2)c2c(Cl)cccc21)C(N)=O`
Response: 0.0025

Query: Give the value of EC50 reported for the following: `Cc1ccc2c(c1)n(CC1CCCCC1)c(=O)n2C(=O)N[C@@H](Cc1ccccc1)C(N)=O`
Response: 2.58

Query: Give the value of EC50 reported for the following: `O=C(N[C@H]1c2ccccc2C[C@H]1O)n1c(=O)n(CC2CCOCC2)c2ccccc21`
Response: 0.136

Query: Give the value of EC50 reported for the following: `CC(C)(C)[C@H](NC(=O)n1c(=O)n(CC2CCOCC2)c2cc(F)ccc21)C(=O)NC1CC1`
Response: 0.173

Query: Give the value of EC50 reported for the following: `CC(C)(C)[C@H](NC(=O)n1c(=O)n(CC2CCOCC2)c2ccccc21)C(=O)NCCO`
Response: 0.0836

Query: Give the value of EC50 reported for the following: `CCCCCn1c(=O)n(C(=O)N[C@H]2CCCC[C@@H]2O)c2ccccc21`
Response: 0.622

Query: Give the value of EC50 reported for the following: `O=C(N[C@H]1c2ccccc2C[C@H]1O)n1c(=O)n(CC2CCCCC2)c2ccccc21`
Response: 0.0877

Query: Give the value of EC50 reported for the following: `CC(C)(C)[C@H](NC(=O)n1c(=O)n(CC2CCCCC2)c2ccc(Cl)cc21)C(N)=O`
Response: 0.0315

Query: Give the value of EC50 reported for the following: `CCc1nc(CNC(=O)n2c(=O)n(CC3CCOCC3)c3ccccc32)cs1`
Response: 0.167

Query: Give the value of EC50 reported for the following: `CC(C)(C)[C@H](NC(=O)n1c(=O)n(CC2CCCCC2)c2cc(F)ccc21)C(N)=O`
Response: 0.001

Query: Give the value of EC50 reported for the following: `CC(C)(C)[C@H](NC(=O)n1c(=O)n(CC2CCOCC2)c2ccccc21)C(=O)NCC(N)=O`
Response: 0.407

Query: Give the value of EC50 reported for the following: `CC(C)(C)[C@@H](CO)NC(=O)n1c(=O)n(CC2CCCCC2)c2cc(Br)ccc21`
Response: 0.0205

Query: Give the value of EC50 reported for the following: `CC(C)(C)[C@H](NC(=O)n1c(=O)n(CC2CCOCC2)c2ccccc21)c1nnc(N)o1`
Response: 0.0963

Query: Give the value of EC50 reported for the following: `CC(C)(C)[C@H](NC(=O)n1c(=O)n(CC2CCCCC2)c2ccc(F)cc21)C(N)=O`
Response: 0.0274

Query: Give the value of EC50 reported for the following: `O=C(N[C@H]1c2ccccc2C[C@H]1O)n1c(=O)n(CC2CCC2)c2ccccc21`
Response: 1.02

Query: Give the value of EC50 reported for the following: `CC(C)(C)[C@H](NC(=O)n1c(=O)n(CC2CCCCC2)c2cc(Br)ccc21)C(N)=O`
Response: 0.0495

Query: Give the value of EC50 reported for the following: `O=C(NCc1ccoc1)n1c(=O)n(CC2CCOCC2)c2ccccc21`
Response: 0.606

Query: Give the value of EC50 reported for the following: `CC(C)(C)[C@H](NC(=O)n1c(=O)n(CCCC(F)(F)F)c2ccccc21)C(N)=O`
Response: 0.0324

Measured values drawn from patent US20090298811A1 for this set.
